B1: TRAF3IP2 (parent)
chain: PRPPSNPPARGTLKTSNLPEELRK

variants of: B1; assay: protein stability index of a GFP-peptide fusion (GPS, HEK-293T) (PSI 1-6); higher = more stable; conditions: c terminus: a fixed tail appended;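 further: lentivirally expressed fusions sorted by FACS into six bins by GFP to DsRed ratio, PSI derived from sequencing read proportions per bin multiplied by bin number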
PROPERTY_NAME: protein stability index

[[record]]
variant_description = "N17H"
recorded_result = 4.58

[[record]]
variant_description = "S5Q"
recorded_result = 4.45

[[record]]
variant_description = "R23T"
recorded_result = 4.77

[[record]]
variant_description = "E20Q"
recorded_result = 4.67

[[record]]
variant_description = "E21N"
recorded_result = 4.6

[[record]]
variant_description = "T15S"
recorded_result = 4.79

[[record]]
variant_description = "S5M"
recorded_result = 5

[[record]]
variant_description = "E21D"
recorded_result = 4.71

[[record]]
variant_description = "P8M"
recorded_result = 4.76

[[record]]
variant_description = "P3S"
recorded_result = 4.95

[[record]]
variant_description = "P8K"
recorded_result = 4.99

[[record]]
variant_description = "L18D"
recorded_result = 4.67

[[record]]
variant_description = "E21F"
recorded_result = 3.73

[[record]]
variant_description = "E20K"
recorded_result = 4.2

[[record]]
variant_description = "S5R"
recorded_result = 4.36

[[record]]
variant_description = "R10V"
recorded_result = 5.64

[[record]]
variant_description = "L18T"
recorded_result = 4.96

[[record]]
variant_description = "P19G"
recorded_result = 4.36

[[record]]
variant_description = "G11L"
recorded_result = 3.88

[[record]]
variant_description = "P8T"
recorded_result = 5.02

[[record]]
variant_description = "P7M"
recorded_result = 4.09

[[record]]
variant_description = "P4Q"
recorded_result = 4.88

[[record]]
variant_description = "R23M"
recorded_result = 4.31

[[record]]
variant_description = "K14R"
recorded_result = 4.65

[[record]]
variant_description = "P7N"
recorded_result = 5.17

[[record]]
variant_description = "E21W"
recorded_result = 3.69

[[record]]
variant_description = "P1V"
recorded_result = 4.42

[[record]]
variant_description = "P1C"
recorded_result = 4.46

[[record]]
variant_description = "P19K"
recorded_result = 4.59

[[record]]
variant_description = "R23Y"
recorded_result = 4.47

[[record]]
variant_description = "R2L"
recorded_result = 4.2

[[record]]
variant_description = "L22G"
recorded_result = 4.15

[[record]]
variant_description = "E20S"
recorded_result = 4.52

[[record]]
variant_description = "E21P"
recorded_result = 3.62

[[record]]
variant_description = "K24Q"
recorded_result = 4.66

[[record]]
variant_description = "S16Y"
recorded_result = 4.48

[[record]]
variant_description = "S16E"
recorded_result = 4.95

[[record]]
variant_description = "K24V"
recorded_result = 4.53

[[record]]
variant_description = "E20A"
recorded_result = 4.41

[[record]]
variant_description = "K24D"
recorded_result = 5.14

[[record]]
variant_description = "T15H"
recorded_result = 4.99

[[record]]
variant_description = "P7H"
recorded_result = 4.27

[[record]]
variant_description = "E20F"
recorded_result = 4.06

[[record]]
variant_description = "S16G"
recorded_result = 4.79

[[record]]
variant_description = "L13R"
recorded_result = 4.6

[[record]]
variant_description = "N6L"
recorded_result = 5.01

